assay: Neuronal voltage-dependent calcium channel (VDCC) inhibitory activity determined in rat cortical synaptosomes; type: subcellular, Brain
value type: IC50 (µM)

> print(dat)
                                   molecule  recorded.number
1  COc1ccc(OCCN2CCN(CCCC(C#N)(c3ccccc3)C(C)C)CC2)cc1 (stereo unspecified)              9.6
2  CC(C)C(C#N)(CCCN1CCN(CCOc2ccc(F)c(F)c2)CC1)c1ccccc1 (stereo unspecified)              5.2
3  CC(C)C(C#N)(CCCN1CCN(CCOc2cccc(C#N)c2)CC1)c1ccccc1 (stereo unspecified)              7.7

[a] CC(C)C(C#N)(CCCN1CCN(CCOc2cccc(F)c2)CC1)c1ccccc1 (stereo unspecified)
[b] CC(C)C(C#N)(CCCN1CCN(Cc2ccccc2)CC1)c1ccccc1 (stereo unspecified)
INPUT: # return whichever of a and b has the smaller IC50 Indicate your choice by writing its label.
OUTPUT: a
(a: 6.2 µM, b: 12 µM)

###

test: Neuronal voltage-dependent calcium channel (VDCC) inhibitory activity determined in rat cortical synaptosomes; format: subcellular, Brain
pIC50: −log10 of the molar value.
value type: pIC50

Past entries and their recorded results:
> print(dat)
                                   molecule  value.type  recorded.number
1  CC(C)C(C#N)(CCCN1CCN(CCOc2ccc([N+](=O)[O-])cc2)CC1)c1ccccc1 (centres undefined)       pIC50             5.12
2  CC(C)C(C#N)(CCCN1CCN(CCOc2ccccc2F)CC1)c1ccccc1 (centres undefined)       pIC50             5.03
3  CC(C)C(C#N)(CCCN(C)CCc1ccccc1)c1ccccc1 (centres undefined) [EMOPAMIL]       pIC50             4.55
4  CC(C)C(C#N)(CCCN1CCN(CCOc2ccc(F)cc2)CC1)c1ccccc1 (centres undefined)       pIC50             5.23
5  CC(C)C(C#N)(CCCN1CCN(CCCc2ccccc2)CC1)c1ccccc1 (centres undefined)       pIC50             5.35

[A] CC(C)C(C#N)(CCCN1CCN(CCc2ccccc2)CC1)c1ccccc1 (centres undefined)
[B] CC(C)C(C#N)(CCCN1CCN(CCOc2ccccc2C#N)CC1)c1ccccc1 (centres undefined)
INPUT: # return whichever of A and B has the smaller pIC50 Indicate your choice by writing its label.
OUTPUT: B
(B: 4.80, A: 5.11)

[P] CC(C)C(C#N)(CCCN1CCN(CCOc2ccc(Cl)cc2)CC1)c1ccccc1 (centres undefined)
[Q] CC(C)C(C#N)(CCCN1CCN(CCOc2ccc(C#N)cc2)CC1)c1ccccc1 (centres undefined)
INPUT: # return whichever of P and Q has the smaller pIC50 Indicate your choice by writing its label.
OUTPUT: Q
(Q: 4.89, P: 5.47)

[A] CC(C)C(C#N)(CCCN1CCN(CCOc2cccc3ccccc23)CC1)c1ccccc1 (centres undefined)
[B] CC(C)C(C#N)(CCCN1CCN(CCOc2ccc(N)cc2)CC1)c1ccccc1 (centres undefined)
INPUT: # return whichever of A and B has the smaller pIC50 Indicate your choice by writing its label.
OUTPUT: B

###

Reported pIC50 values for a set of molecules
test: Neuronal voltage-dependent calcium channel (VDCC) inhibitory activity determined in rat cortical synaptosomes; type: subcellular, Brain
pIC50: −log10 of the molar value.

> print(dat)
                                   molecule  value.type  result
1  CC(C)C(C#N)(CCCN1CCN(CCOc2ccc(N(C)C)cc2)CC1)c1ccccc1 (stereo not drawn)       pIC50  < 4.80
2  CC(C)C(C#N)(CCCN1CCN(CCOc2ccncc2)CC1)c1ccccc1 (stereo not drawn)       pIC50  < 4.80

Then there is this molecule:
INPUT: Form field: reported pIC50 of CC(C)C(C#N)(CCCN1CCNCC1)c1ccccc1 (stereo not drawn)
OUTPUT: < 4.80
